# STUDY TARGET: UniProt P08842
# Sequence (P08842 whole entry): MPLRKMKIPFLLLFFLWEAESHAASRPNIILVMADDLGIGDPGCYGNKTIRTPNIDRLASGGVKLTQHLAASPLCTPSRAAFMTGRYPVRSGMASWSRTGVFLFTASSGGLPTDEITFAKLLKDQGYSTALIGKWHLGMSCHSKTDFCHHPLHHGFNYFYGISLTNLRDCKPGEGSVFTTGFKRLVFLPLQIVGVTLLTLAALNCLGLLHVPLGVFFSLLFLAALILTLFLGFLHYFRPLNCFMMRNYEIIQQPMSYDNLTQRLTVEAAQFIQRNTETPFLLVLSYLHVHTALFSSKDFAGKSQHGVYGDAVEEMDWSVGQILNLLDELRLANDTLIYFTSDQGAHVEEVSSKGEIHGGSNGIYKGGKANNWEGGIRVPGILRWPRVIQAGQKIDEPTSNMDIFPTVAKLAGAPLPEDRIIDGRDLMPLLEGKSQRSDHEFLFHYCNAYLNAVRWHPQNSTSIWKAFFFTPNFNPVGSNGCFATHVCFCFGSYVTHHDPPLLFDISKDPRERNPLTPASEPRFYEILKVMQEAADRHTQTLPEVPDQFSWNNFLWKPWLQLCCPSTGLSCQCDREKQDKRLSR
# TEST DESCRIPTION: Estrone sulfatase activity against homogenized human JEG-3 cells was determined by measuring the [3H]E1 obtained from [3H]E1S
# Format: cell-based
pIC50 overview
# pIC50 is unitless: minus log10 of the molar concentration; print number only

1) C[C@]12CC[C@@H]3c4ccc(O)cc4CC[C@H]3[C@@H]1CC[C@@H]2O ... 4.08

Let us move to another entry and its pIC50.
Lookup: # pIC50 lookup, item C[C@]12CC[C@@H]3c4ccc(O)cc4CC[C@H]3[C@@H]1CC[C@@]2(O)Cc1ccccc1
Found: 6.51
